B1: KCNA3 (parent)
chain: YQSGGRIRRPVNVPIDIFSEEIRF

Variants of: B1
Assay: protein stability index of a GFP-peptide fusion (GPS, HEK-293T) (PSI 1-6); higher = more stable;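 note: lentivirally expressed fusions sorted by FACS into six bins by GFP to DsRed ratio, PSI derived from sequencing read proportions per bin multiplied by bin number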
Conditions: c terminus: a fixed tail appended
Please note: t applies when protein stability index is 2 or greater, and f applies otherwise.

>>> cat("N12A")
"f"
>>> cat("S3N")
"t"
>>> cat("S3T")
"t"
>>> cat("V13Q")
"t"
>>> cat("I22M")
"t"
>>> cat("I22V")
"t"
>>> cat("R6L")
"f"
>>> cat("E21N")
"t"

Exam item: Hello, I need to know if V13D has measured protein stability index not below 2. Thanks!
Marked response: t

Exam item: Assess whether reported protein stability index for F24W sits at 2 or higher.
Marked response: f

Exam item: Has F24I a recorded protein stability index greater than or equal to 2?
Marked response: t
